Collected Selectivity Index values appear next to each entry.
Protocol notes: Selectivity index, ratio of ED50 for human KB cells to IC50 for chloroquine-resistant Plasmodium falciparum W2
Format: functional
I only need the number, thanks.

The following molecules have reported results that may help.
Give Selectivity Index for COc1ccc2cc1Oc1ccc(cc1)C[C@H]1c3c(cc(OC)c4c3Oc3cc5c(cc3O4)CCN=C5C2)CCN1C
11

Give Selectivity Index for COc1ccc2cc1Oc1ccc(cc1)C[C@H]1c3c(cc4c(c3Oc3cc5c(cc3OC)CCN[C@@H]5C2)OCO4)CCN1C
30

Give Selectivity Index for COc1cc2c3cc1Oc1c(OC)c(OC)cc4c1[C@@H](Cc1ccc(O)c(c1)Oc1ccc(cc1)C[C@@H]3N(C)CC2)NCC4
36

Give Selectivity Index for COc1ccc2cc1Oc1ccc(cc1)C[C@H]1c3cc(c(OC)cc3CCN1C)Oc1c(OC)c(OC)cc3c1[C@H](C2)N(C)CC3 [FANCHININ]
22

Now for the molecule whose Selectivity Index we want.
Give Selectivity Index for COc1cc2c3cc1Oc1c(OC)c(OC)cc4c1[C@@H](Cc1ccc(O)c(c1)Oc1ccc(cc1)C[C@@H]3N(C)CC2)N(C)CC4 [BERBAMINE]
29

* * *

Protocol notes: Selectivity index, ratio of ED50 for human KB cells to IC50 for […] Plasmodium falciparum D6
Assay type: functional
Reported property: Selectivity Index

Give Selectivity Index for COc1ccc2cc1Oc1ccc(cc1)C[C@H]1c3cc(c(OC)cc3CC[N+]1(C)[O-])Oc1c(OC)c(OC)cc3c1[C@H](C2)N(C)CC3 (stereo partly drawn)
>16

Give Selectivity Index for COc1ccc2cc1Oc1cc3c(cc1OC)CCN=C3Cc1ccc(cc1)COc1c(OC)cc3c(c1O)[C@H](C2)N(C)CC3
>98

Continuing:
Give Selectivity Index for C=C[C@H]1CN2CC[C@H]1C[C@H]2[C@H](O)c1ccnc2ccc(OC)cc12
>285

* * *

Protocol notes: Selectivity index, ratio of ED50 for human KB cells to IC50 for […] Plasmodium falciparum D6
Format: functional
Rule for this label: satisfied means Selectivity Index is less than 90; not satisfied means Selectivity Index is at least 90.

Check if Selectivity Index falls below 90 for COc1cc2ccnc3c2cc1Oc1cc(ccc1O)C[C@H]1c2c(cc(OC)c(c2O)OCc2ccc(cc2)C3)CCN1C .
not satisfied

Check if Selectivity Index falls below 90 for C[C@@H]1CC[C@H]2[C@@H](C)C(=O)O[C@@H]3O[C@@]4(C)CC[C@@H]1[C@]32OO4 [ARTEMISININ] .
not satisfied

Check if Selectivity Index falls below 90 for COc1cc2c(cc1O)[C@H](Cc1ccc(Oc3cc(C[C@@H]4c5cc(OC)c(OC)cc5CCN4C)ccc3OC)cc1)N(C)CC2 .
not satisfied

Check if Selectivity Index falls below 90 for COc1cc2c3c(c1O)Oc1cc4c(cc1O)CCN(C)[C@H]4Cc1ccc(O)c(c1)Oc1ccc(cc1)C[C@@H]2NCC3 .
satisfied

Check if Selectivity Index falls below 90 for COc1cc2c3cc1Oc1c(O)c(OC)cc4c1[C@H](Cc1ccc(O)c(c1)Oc1ccc(cc1)C[C@@H]3N(C)CC2)N(C)CC4 .
satisfied

Continuing:
Check if Selectivity Index falls below 90 for COc1ccc2cc1Oc1ccc(cc1)C[C@H]1c3cc(c(OC)cc3CCN1C)Oc1c(O)c(OC)cc3c1[C@H](C2)N(C)CC3 [FANGCHINOLINE] .
satisfied

Check if Selectivity Index falls below 90 for COc1ccc(C[C@H]2c3cc(Oc4cc(OC)c(OC)cc4C[C@H]4c5cc(O)c(OC)cc5CCN4C)c(OC)cc3CCN2C)cc1O .
not satisfied

Check if Selectivity Index falls below 90 for COc1ccc2cc1Oc1ccc(cc1)C[C@H]1c3c(cc(O)c4c3Oc3cc5c(cc3O4)CCN(C)[C@H]5C2)CCN1C .
not satisfied

Check if Selectivity Index falls below 90 for COc1cc2c3c4c1Oc1cc5c(cc1O4)[C@H](Cc1ccc(O)c(c1)Oc1ccc(cc1)C[C@@H]3N(C)CC2)N(C)CC5 [COCSULINE] .
not satisfied

Check if Selectivity Index falls below 90 for COc1ccc2cc1Oc1ccc(cc1)C[C@H]1c3c(cc(OC)c4c3Oc3cc5c(cc3O4)CCN=C5C2)CCN1C .
satisfied

Check if Selectivity Index falls below 90 for COc1cc2c3cc1Oc1cc(ccc1O)C[C@@H]1c4c(cc5c(c4Oc4ccc(cc4)C[C@@H]3N(C(C)=O)CC2)OCO5)CCN1C .
satisfied
